- target.or.system: HDAC9 enzyme (Homo sapiens, UniProt Q9UKV0)
- Construct: transducing full length HDAC9 gene into Sf-9 insect cells; made in house; host or cells: Sf-9 insect cells
- Sequence (Q9UKV0 whole entry, species assumed): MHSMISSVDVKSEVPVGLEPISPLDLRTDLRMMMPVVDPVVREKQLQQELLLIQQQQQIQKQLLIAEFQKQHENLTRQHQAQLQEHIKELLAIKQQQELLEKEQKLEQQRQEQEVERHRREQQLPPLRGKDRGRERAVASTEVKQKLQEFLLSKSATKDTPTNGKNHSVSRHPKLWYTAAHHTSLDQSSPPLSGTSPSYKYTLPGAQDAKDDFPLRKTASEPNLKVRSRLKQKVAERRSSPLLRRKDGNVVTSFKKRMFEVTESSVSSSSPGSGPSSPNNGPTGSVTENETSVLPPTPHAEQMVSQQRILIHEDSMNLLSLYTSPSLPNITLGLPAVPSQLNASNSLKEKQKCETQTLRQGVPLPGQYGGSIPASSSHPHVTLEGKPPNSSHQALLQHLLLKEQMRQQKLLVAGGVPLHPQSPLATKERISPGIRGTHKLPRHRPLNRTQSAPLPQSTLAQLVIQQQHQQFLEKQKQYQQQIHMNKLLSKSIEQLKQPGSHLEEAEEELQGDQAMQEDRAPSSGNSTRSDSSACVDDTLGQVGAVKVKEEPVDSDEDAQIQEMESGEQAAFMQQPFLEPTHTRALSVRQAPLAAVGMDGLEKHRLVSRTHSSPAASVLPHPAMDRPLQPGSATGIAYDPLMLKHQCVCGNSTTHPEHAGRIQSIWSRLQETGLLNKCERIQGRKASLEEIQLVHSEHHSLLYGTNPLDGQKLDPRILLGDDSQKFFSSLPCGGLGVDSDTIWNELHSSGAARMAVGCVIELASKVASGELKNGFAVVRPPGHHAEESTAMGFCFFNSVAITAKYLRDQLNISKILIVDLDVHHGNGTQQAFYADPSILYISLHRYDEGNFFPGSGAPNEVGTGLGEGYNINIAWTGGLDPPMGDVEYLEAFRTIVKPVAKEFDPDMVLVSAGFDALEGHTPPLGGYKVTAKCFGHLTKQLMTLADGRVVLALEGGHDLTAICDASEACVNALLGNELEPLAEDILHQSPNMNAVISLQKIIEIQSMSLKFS
- assay.method.text: HDAC9 Enzyme Inhibitory Assay (HDAC-Glo class IIa)
- Type: biochemical
- measurement.setup: 1 μM test compound; wells without enzyme = 100% inhibition; read-out: HDAC9 inhibitory rate (%) (1 μM)
Think of 60% as a floor: if inhibition at 1 µM stands on it or above, it is t; beneath it, f.

Known results for molecules:
molecule	assigned.class
O=C1c2cc(-c3noc(C(F)(F)F)n3)ccc2CN1[C@@H]1CCNC[C@H]1c1ccc(F)c(F)c1 (relative stereo) [Example 46]	t
CC(C)(C)OC(=O)N[C@H]1CCCC[C@@H]1N1Cc2ccc(-c3noc(C(F)(F)F)n3)cc2C1=O [Example 27]	t
O=C1c2cc(-c3noc(C(F)(F)F)n3)ccc2CN1[C@@H]1CCNC[C@H]1c1ccccc1 [Example 15]	t
O=C1c2cc(-c3noc(C(F)(F)F)n3)ccc2CN1[C@@H]1CCCC[C@H]1NS(=O)(=O)C1CC1 [Example 89]	t
O=C(N[C@@H]1CCCC[C@H]1N1Cc2ccc(-c3noc(C(F)(F)F)n3)cc2C1=O)c1ccccc1 (relative stereo) [Example 9]	t
O=C(N[C@H]1CCOC[C@@H]1N1Cc2ccc(-c3noc(C(F)(F)F)n3)cc2C1=O)[C@H]1CCOC1 [Example 210]	f
O=C(N[C@@H]1CCCC[C@H]1N1Cc2ccc(-c3noc(C(F)(F)F)n3)cc2C1=O)C1CC1F (some centres unmarked) [Example 132]	f
O=C1CCCN1[C@@H]1COCC[C@H]1N1Cc2ccc(-c3noc(C(F)(F)F)n3)cc2C1=O [Example 177]	t
O=C(N[C@@H]1CCCC[C@H]1N1Cc2ccc(-c3noc(C(F)(F)F)n3)cc2C1=O)N1CC2CC(C1)O2 [Example 164]	f
N[C@@H]1CCCC[C@H]1N1Cc2ccc(-c3noc(C(F)(F)F)n3)cc2C1=O [Example 28]	t

[Q] Does the reported inhibition at 1 µM for O=C1c2cc(-c3noc(C(F)(F)F)n3)ccc2CN1[C@@H]1CCCC[C@H]1NC(=O)C1(c2ccccc2)COC1 [Example 134] fall at or above the 60% mark?
[A] f

[Q] Same lookup for O=C1CCCN1[C@@H]1CCCC[C@H]1N1Cc2ccc(-c3noc(C(F)(F)F)n3)cc2C1=O (relative stereo) [Example 18] , please.
[A] f

* * *

- target.or.system: HDAC9 enzyme (Homo sapiens)
- Construct: transducing full length HDAC9 gene into Sf-9 insect cells; made in house; host or cells: Sf-9 insect cells
- assay.method.text: HDAC9 Enzyme Inhibitory Assay (HDAC-Glo class IIa)
- Format: biochemical
- measurement.setup: 1 μM test compound; wells without enzyme = 100% inhibition; read-out: HDAC9 inhibitory rate (%) (1 μM)
readout.name: inhibition at 1 µM (%)
Hi! Could you send only the number? It should be in %, unit omitted.

// solved cases for inhibition at 1 µM follow
compound	inhibition at 1 µM, %
O=C(N[C@@H]1CCCC[C@H]1N1Cc2ccc(-c3noc(C(F)(F)F)n3)cc2C1=O)C1CC1 [Example 32]	52
O=C(N[C@@H]1CCCC[C@H]1N1Cc2ccc(-c3noc(C(F)(F)F)n3)cc2C1=O)C1CCOCC1	19
O=C1CCCN1c1cccc(Cl)c1N1Cc2ccc(-c3noc(C(F)(F)F)n3)cc2C1=O	41
Cn1cnc(C(=O)N[C@@H]2CCCC[C@H]2N2Cc3ccc(-c4noc(C(F)(F)F)n4)cc3C2=O)c1	68
CC(=O)N1CC[C@@H](c2ccccc2)[C@H](N2Cc3cc(-c4noc(C(F)(F)F)n4)ccc3C2=O)C1 (relative stereo)	81
CC(C)(C)OC(=O)N1CC[C@@H](N2Cc3ncc(-c4noc(C(F)(F)F)n4)cc3C2=O)[C@H](c2ccccc2)C1	97

Please turn your attention to the following entry.
[Q] Which inhibition at 1 µM value belongs to CC(C)(C)OC(=O)N[C@H]1CCCC[C@H]1N1Cc2ccc(-c3noc(C(F)(F)F)n3)cc2C1=O ?
[A] 67

* * *

- target.or.system: HDAC1 enzyme (Homo sapiens)
- Construct: transducing full length HDAC1 and HDAC6 genes into Sf-9 insect cells; GST; purchased SignalChem; host or cells: Sf-9 insect cells
- Sequence (Q13547 whole entry): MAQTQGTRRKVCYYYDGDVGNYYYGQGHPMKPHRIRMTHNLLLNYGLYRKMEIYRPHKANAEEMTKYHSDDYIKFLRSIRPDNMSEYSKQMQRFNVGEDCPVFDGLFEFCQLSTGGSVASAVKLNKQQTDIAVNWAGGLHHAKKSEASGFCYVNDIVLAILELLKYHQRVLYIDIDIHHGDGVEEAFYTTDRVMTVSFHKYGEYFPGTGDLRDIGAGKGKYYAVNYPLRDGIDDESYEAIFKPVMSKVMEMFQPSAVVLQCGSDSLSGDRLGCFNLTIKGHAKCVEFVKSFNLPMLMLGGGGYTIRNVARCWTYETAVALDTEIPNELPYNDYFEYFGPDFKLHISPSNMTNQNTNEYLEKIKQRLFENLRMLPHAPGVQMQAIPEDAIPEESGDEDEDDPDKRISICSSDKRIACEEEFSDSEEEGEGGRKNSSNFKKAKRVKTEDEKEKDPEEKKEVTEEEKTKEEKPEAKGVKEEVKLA
- assay.method.text: HDAC1/6 Enzyme Inhibitory Assay (HDAC-Glo I/II Assay kit), HDAC1
- Assay type: biochemical
- measurement.setup: 1 μM test compound; wells without enzyme = 100% inhibition; read-out: HDAC1 inhibitory rate (%) (1 μM)
readout.name: inhibition at 1 µM (%)
Provide the reading as a plain figure in %.

Worked examples, 6 compounds total:
compound	unit.string	inhibition at 1 µM
O=C(CC1(O)CCCC1)N[C@@H]1CCCC[C@H]1N1Cc2ccc(-c3noc(C(F)(F)F)n3)cc2C1=O	%	11
O=C1CC[C@H](C(=O)N[C@@H]2CCCC[C@H]2N2Cc3ccc(-c4noc(C(F)(F)F)n4)cc3C2=O)N1	%	0
O=C(N[C@H]1COCC[C@@H]1N1Cc2ccc(-c3noc(C(F)(F)F)n3)cc2C1=O)[C@H]1CC1(F)F	%	34
O=C1c2cc(-c3noc(C(F)(F)F)n3)ccc2CN1C1CCNC[C@@H]1c1cc(Cl)cc(Cl)c1 (stereo in doubt)	%	99
O=C(N[C@@H]1CCCC[C@H]1N1Cc2ccc(-c3noc(C(F)(F)F)n3)cc2C1=O)[C@H]1CC1(F)F	%	8
Cn1cnc(C(=O)N[C@@H]2CCCC[C@H]2N2Cc3ccc(-c4noc(C(F)(F)F)n4)cc3C2=O)c1	%	12

// moving on: another record for inhibition at 1 µM
[Q] State the recorded inhibition at 1 µM for this entry: CC(C)(C)OC(=O)N1C[C@@H](N2Cc3ccc(-c4noc(C(F)(F)F)n4)cc3C2=O)[C@H](c2ccccc2)C1 (relative stereo)
[A] 33

* * *

- target.or.system: HDAC1 enzyme (Homo sapiens)
- Construct: transducing full length HDAC1 and HDAC6 genes into Sf-9 insect cells; GST; purchased SignalChem; host or cells: Sf-9 insect cells
- assay.method.text: HDAC1/6 Enzyme Inhibitory Assay (HDAC-Glo I/II Assay kit), HDAC1
- Format: biochemical
- measurement.setup: 1 μM test compound; wells without enzyme = 100% inhibition; read-out: HDAC1 inhibitory rate (%) (1 μM)
Classification field: enter criterion met for inhibition at 1 µM values not below 10%, criterion not met for values below it.

compound	target.or.system	assigned.class
O=C(N[C@@H]1CCOC[C@H]1N1Cc2ccc(-c3noc(C(F)(F)F)n3)cc2C1=O)[C@H]1CCOC1	HDAC1 enzyme (Homo sapiens)	criterion not met
N[C@@H]1CCCC[C@H]1N1Cc2ccc(-c3noc(C(F)(F)F)n3)cc2C1=O (relative stereo) [Example 7]	HDAC1 enzyme (Homo sapiens)	criterion not met
O=C(N[C@@H]1CCCC[C@H]1N1Cc2ncc(-c3noc(C(F)(F)F)n3)cc2C1=O)C1CC1	HDAC1 enzyme (Homo sapiens)	criterion met
O=C1c2cc(-c3noc(C(F)(F)F)n3)ccc2CN1[C@@H]1CCNC[C@H]1c1ccc(F)c(Cl)c1 (relative stereo)	HDAC1 enzyme (Homo sapiens)	criterion met

[Q] I'd appreciate it if you could say whether O=C(N[C@@H]1CCCC[C@H]1N1Cc2ccc(-c3noc(C(F)(F)F)n3)cc2C1=O)C1COC1 has inhibition at 1 µM at least equal to 10%.
[A] criterion not met

[Q] Next: CC(C)(C)OC(=O)N1CC[C@@H](N2Cc3ccc(-c4noc(C(F)(F)F)n4)cc3C2=O)[C@@H](c2ccccc2)C1
[A] criterion met

[Q] Can you handle O=C(N[C@@H]1COCC[C@H]1N1Cc2ccc(-c3noc(C(F)(F)F)n3)cc2C1=O)[C@H]1CC1(F)F next?
[A] criterion met

[Q] Can you check CC(C)(C)OC(=O)N1CC[C@@H](N2Cc3ncc(-c4noc(C(F)(F)F)n4)cc3C2=O)[C@H](c2ccccc2)C1 next?
[A] criterion met

[Q] Another compound to check: O=C(c1ccccc1)N1C[C@@H](N2Cc3ccc(-c4noc(C(F)(F)F)n4)cc3C2=O)[C@H](c2ccccc2)C1 (relative stereo)
[A] criterion met

[Q] Try this compound next: O=C1NCCC1C(=O)N[C@@H]1CCCC[C@H]1N1Cc2ccc(-c3noc(C(F)(F)F)n3)cc2C1=O (some centres unmarked)
[A] criterion not met

[Q] Now the same for O=C1c2ccc(-c3noc(C(F)(F)F)n3)cc2CN1[C@@H]1CNCC[C@H]1c1ccccc1 (relative stereo)
[A] criterion met

[Q] And CC1(C)C(C(=O)N[C@@H]2CCCC[C@H]2N2Cc3ccc(-c4noc(C(F)(F)F)n4)cc3C2=O)C1(C)C ?
[A] criterion met

* * *

- target.or.system: HDAC9 enzyme (Homo sapiens, UniProt Q9UKV0)
- Construct: transducing full length HDAC9 gene into Sf-9 insect cells; made in house; host or cells: Sf-9 insect cells
- assay.method.text: HDAC9 Enzyme Inhibitory Assay (HDAC-Glo class IIa)
- Format: biochemical
- measurement.setup: 1 μM test compound; wells without enzyme = 100% inhibition; read-out: HDAC9 inhibitory rate (%) (1 μM)
- Experimental: HDAC9 Enzyme Inhibitory Assay Enzyme was prepared by transducing full length HDAC9 gene into Sf-9 insect cells and purifying by Ni-NTA affinity column, and HDAC9 enzyme inhibitory activity was evaluated. Enzymes were used after preserved at −70° C. HDAC9 enzyme inhibitory activity of the test compound was measured using HDAC-Glo class IIa (Promega) according to the following experimental method. […]
Label rule, in plain words: inhibition at 1 µM of 70% and up is Satisfied, under 70% is Not satisfied.

Reference set (3 entries):
compound	assigned.class
CC(C)(C)OC(=O)N1C[C@@H](N2Cc3ccc(-c4noc(C(F)(F)F)n4)cc3C2=O)[C@H](c2ccccc2)C1 (relative stereo)	Satisfied
CC1(C(=O)N[C@@H]2CCCC[C@H]2N2Cc3ccc(-c4noc(C(F)(F)F)n4)cc3C2=O)CCC1	Not satisfied
O=C(N[C@@H]1CCCC[C@H]1N1Cc2ccc(-c3noc(C(F)(F)F)n3)cc2C1=O)N1C2COCC1C2	Not satisfied

[Q] Is inhibition at 1 µM for O=C(NC1COC1)N[C@@H]1CCCC[C@H]1N1Cc2ccc(-c3noc(C(F)(F)F)n3)cc2C1=O at or above 70%?
[A] Not satisfied

[Q] Also O=C(N[C@H]1CCOC[C@@H]1N1Cc2ccc(-c3noc(C(F)(F)F)n3)cc2C1=O)[C@@H]1CC1(F)F , if possible.
[A] Satisfied

[Q] Field entry: COC1(C(=O)N[C@@H]2CCCC[C@H]2N2Cc3ccc(-c4noc(C(F)(F)F)n4)cc3C2=O)CCC1
[A] Not satisfied

Ref: patent US10308643B2
